# Test system: Wolbachia pipientis
# method: Anti-Wolbachia Cell-Based Screen
# Type: functional
# Design: scale not given: in the data most compounds retested in dose-response had high values
# conditions: 5 µM
Among all 48,000 compounds or so, about 13,000 (27%) showed an effect of 50% or more. Some of the results follow.
measured metric: Percent Effect (%)
Answers are plain numbers, in %.

Study these solved cases before continuing.
molecule	measured result
COCCn1cc(C(=O)N2CCCC2c2cccc(C)c2)ccc1=O (stereo unspecified)	1.918
Cn1c(NCC(=O)N2CCCC2)c(C#N)c(=O)n(C)c1=O	6.318
Cc1ccc(CNC(=O)c2ccc(S(=O)(=O)N3C[C@@H]4C[C@H]3CN4)cc2)o1	13.35

// batch mode: one Percent Effect value per listed entry
1. Cc1ccc(CNC(=O)C2CCN(C(=O)C(C)C)CC2)n1C
2. CS(=O)(=O)NCC(=O)NC1(c2ccc(Cl)c(Cl)c2)CC1
3. NC(=O)CCOc1nc(-c2ccccc2Cl)no1
4. CCC1=N[C@@]2(CC[C@@H]3CN(C(=O)NCC(C)C)C[C@@H]32)C(=O)N1CC(C)C

Response given:
[-14.75, -6.64, -3.331, -11.82]

###

# Test system: Wolbachia pipientis
# method: Anti-Wolbachia Cell-Based Screen
# Format: functional
# Parameters: scale not given: in the data most compounds retested in dose-response had high values
# conditions: 5 µM
The whole screen tested about 48,000 compounds, of which about 13,000 (27%) showed an effect of 50% or more. The list shows a part of the results.
measured metric: Percent Effect

These solved cases illustrate the format of a correct answer.
molecule	measured result
Cc1cnn(CC2CN(CC(=O)N(C)c3nccs3)CCO2)c1 (stereo not given)	4.22%
Cc1cc(CC(=O)N(CC2CN(C)CCO2)c2nccs2)no1 (stereo not given)	-0.7073%
Cc1ccc(CNC(=O)NC2CCCN(c3ncccn3)C2)n1C (stereo not given)	7.079%
CN1CCOC(CN(C(=O)COc2ccccc2)c2nccs2)C1 (stereo not given)	132.7%

Challenge: Data request, read-out Percent Effect, for Cc1ccc(CC(=O)N2CCCC(c3nc(C)cs3)C2)cn1 (stereo not given)
Response given: -6.398%

###

Could you please report measured Percent Effect for the items listed next?
# Tested on: Wolbachia pipientis
# method: Anti-Wolbachia Cell-Based Screen
# Format: functional
# Parameters: scale not given: in the data most compounds retested in dose-response had high values
# conditions: 5 µM
The whole screen tested about 48,000 compounds, of which about 13,000 (27%) showed an effect of 50% or more. The list shows a part of the results.
One number for each entry, in %.

Example entries and their recorded answers appear below.
molecule	assayed target	measured result
COc1ccc2c(C)c(C(=O)N3CCC(NC(C)=O)C3)oc2c1 (centres undefined)	Wolbachia pipientis	4.828
Cc1ccccc1N1CCN(C(=O)c2cnc(C3CC3)nc2)C(C)C1 (centres undefined)	Wolbachia pipientis	-6.259

Hi! Can you tell me Percent Effect for each of these molecules?
1. O=C(CC1CC1)NC1CCc2c(ccc(=O)n2CC2CC2)C1 (centres undefined)
2. Cc1cc(C(=O)NC2CCc3c(ccc(=O)n3CC(C)C)C2)no1 (centres undefined)

Response given:
1. -16.88
2. 105.4

###

# Test system: Wolbachia pipientis
# method: Anti-Wolbachia Cell-Based Screen
# Type: functional
# Set-up: scale not given: in the data most compounds retested in dose-response had high values
# conditions: 5 µM
Among all 48,000 compounds or so, about 13,000 (27%) showed an effect of 50% or more. The list shows a part of the results.
measured metric: Percent Effect (%)
Give bare numbers, in %.

Sample answers from the record:
molecule	unit of measure	Percent Effect
COc1ccccc1CN1CCC(O)(Cn2ccc3ncccc32)CC1	%	82.78
Cc1nc2cc(=O)[nH]n2c(C)c1CC(=O)Nc1cnn(C(C)(C)C)c1	%	-8.028
CN(C)CC1CSCCCN1C(=O)c1ccc(-c2ccccc2)cc1 (configuration not stated)	%	105.9

// for each molecule in input: emit Percent Effect
1. Cc1ccc(CN2CCC(O)(Cn3ccc4ncccc43)CC2)o1.Cl
2. CCC(CNc1ncnc2oc(C)nc12)Cc1ccccc1 (configuration not stated)
3. Nc1nnc(CCNc2ncnc3c2CCN(C(=O)C2CC2)C3)s1

Response given:
1. 100
2. -28.36
3. -2.758

Required: Percent Effect, one value per molecule below.
1. CS(=O)(=O)N1CCCC12CCN(Cc1ccoc1)CC2
2. Cc1ccc(NS(=O)(=O)c2cccc(C#N)c2)c(CN(C)C)c1
3. Cc1nc(NCCc2ccc(Cl)cc2)cc(C(=O)N2CCOCC2)n1
4. CC(=O)N1N=C(c2cccs2)OC1C(=O)NCCc1cccc(Cl)c1 (configuration not stated)
5. CS(=O)(=O)c1ccc(NCc2ccccc2)cn1

Response given:
1: 99.65; 2: 5.777; 3: 8.895; 4: 135.3; 5: -7.161

For the 7 molecules below, give their Percent Effect values.
1. CCc1nc(NC(=O)Cc2csc(-c3nnc[nH]3)n2)sc1C
2. CN(C)CC1CSCCCN1S(=O)(=O)c1ccc(C(F)(F)F)cc1 (configuration not stated)
3. Cn1cc(CCNC(=O)C2(c3cccc(Cl)c3)CC2)cn1
4. Cc1csc(N2CCC(NCC3(O)CCc4ccccc43)CC2)n1 (configuration not stated)
5. CC(C)C(C(=O)NC1CCOCC1)n1cnc2cc(F)c(F)cc21 (configuration not stated)
6. NC(=O)c1cccc(CCNCc2cnc(-c3cccs3)s2)c1
7. Cn1cc(CN2CCC3(CCCN3S(C)(=O)=O)CC2)cn1

Response given:
[3.287, 1.872, 11.84, -8.914, 3.744, -4.854, 6.984]

Could I get Percent Effect for every one of these entries?
1. COCCOCC(=O)N1CCC(O)(c2ccc3nc(C)ccc3c2)CC1
2. O=C(c1ncccc1O)N1CCN(Cc2ccco2)C(CCO)C1 (configuration not stated)
3. Cc1sc2nc(CCN)nc(N3CC(N4CCCCC4)C3)c2c1C
4. CN(C)CC1CSCCCN1S(=O)(=O)Cc1cccc(F)c1 (configuration not stated)
5. CC[C@H](C)[C@H](N)C(=O)Nc1nc(-c2cnc(N3CCOCC3)nc2)cs1
6. C[C@H]1CN(C)C[C@@]12COCCN(C(=O)Cc1ccccc1)C2.O=C(O)C(F)(F)F
7. CCS(=O)(=O)CCNc1nc(C2CCCC2)nc2c1cnn2C
8. C=C/C=c1\c(=C/C)oc2c(NCc3ccccc3)nc(CC)nc12

Response given:
[1.515, -8.878, 3.569, 24.8, 101.5, 7.732, 3.087, 112.6]

Report Percent Effect for every entry below.
1. Cc1nccc([C@H]2C[C@@H]3CCN(S(C)(=O)=O)C[C@H]3O2)n1
2. CCN(CC)C(=O)CCNC(=O)Cc1nc(-c2ccco2)oc1C
3. Cc1ccc(CN2CCc3ncnc(-c4ccoc4)c3CC2)o1.O=C(O)C(F)(F)F
4. Cc1nccc([C@@H]2C[C@@H]3CCN(S(C)(=O)=O)C[C@H]3O2)n1
5. CN(C)CC1CSCCCN1C(=O)c1ccc(-n2cccc2)cc1 (configuration not stated)
6. COCC(=O)Nc1cnc(N2CCOCC2)nc1
7. CC(C)N(CCNC(=O)c1[nH]nc2ccc(I)cc12)C(C)C

Response given:
1: 116.1; 2: 11.44; 3: 105.9; 4: -4.62; 5: 106.7; 6: -9.684; 7: -4.489

Please give Percent Effect for each item listed below.
1. OCC1(O)CCCN(Cc2ccccc2OCCc2ccccc2)CC1 (configuration not stated)
2. CCC(C(=O)NCc1csc(N2CCOCC2)n1)n1cccn1 (configuration not stated)
3. CN(C)c1nccc(N(C)Cc2ncnn2C)n1
4. Cc1cc(N2CCC(N(C)Cc3cccnc3)C2=O)n(C)n1 (configuration not stated)

Response given:
[13.11, 4.05, 4.507, 5.804]

Below is a list of molecules. For each, state its recorded Percent Effect.
1. CCC[C@H]1CN(CCS(C)(=O)=O)C[C@@H]1NC(=O)c1ccccc1F
2. CCOc1ccc(NC(=O)Nc2cnc(N3CCOCC3)nc2)cc1

Response given:
[-18.99, 2.27]

List the reported Percent Effect of each molecule below.
1. CN(C)CC1CSCCCN1C(=O)c1cccc(C(F)(F)F)c1 (configuration not stated)
2. Cc1cc(N2CCCN(Cc3ccc(C)o3)CC2)ccn1
3. CN(C)CC1CSCCCN1C(=O)c1ccc(C(C)(C)C)cc1 (configuration not stated)

Response given:
90.72
-3.581
10.83
